Tested on: SW480
Assay: Cytotoxicity against human SW480 cells after 96 hrs by SRB assay
Assay type: functional, cell-based
Conditions: Homo sapiens, SW480, 96 h; read-out: IC50
Response field label: string, one of MET (IC50 strictly below 4 µM) or NOT MET.

sampleSmiles	testedTarget	categoryLabel
C=C(C)[C@@H]1CC[C@]2(C(=O)OC)CC[C@]3(C)[C@H](CC[C@@H]4[C@@]5(C)C[C@@H](CS(=O)(=O)CCO)C(=O)C(C)(C)[C@@H]5CC[C@]43C)[C@@H]12	SW480	MET
C=C(C)[C@@H]1CC[C@]2(C(=O)OC)CC[C@]3(C)[C@H](CC[C@@H]4[C@@]5(C)C[C@@H](CSCCO)C(=O)C(C)(C)[C@@H]5CC[C@]43C)[C@@H]12	SW480	MET
C=C/C=C1/C[C@]2(C)[C@H]3CC[C@@H]4[C@H]5[C@H](C(=C)C)CC[C@]5(C(=O)OC)CC[C@@]4(C)[C@]3(C)CC[C@H]2C(C)(C)C1=O	SW480	NOT MET
C=C1C[C@]2(C)[C@H]3CC[C@@H]4[C@H]5[C@H](C(=C)C)CC[C@]5(C(=O)OC)CC[C@@]4(C)[C@]3(C)CC[C@H]2C(C)(C)C1=O	SW480	NOT MET
C=C(C)[C@@H]1CC[C@]2(C(=O)OC)CC[C@]3(C)[C@H](CC[C@@H]4[C@@]5(C)C/C(=C\C)C(=O)C(C)(C)[C@@H]5CC[C@]43C)[C@@H]12	SW480	NOT MET
C=C1C[C@]2(C)[C@H]3CC[C@@H]4[C@H]5[C@H](C(=C)C)CC[C@]5(C(=O)N5CCSCC5)CC[C@@]4(C)[C@]3(C)CC[C@H]2C(C)(C)C1=O	SW480	MET
C=C1C[C@]2(C)[C@H]3CC[C@@H]4[C@H]5[C@H](C(=C)C)CC[C@]5(C(=O)O)CC[C@@]4(C)[C@]3(C)CC[C@H]2C(C)(C)C1=O	SW480	MET
C=C1C[C@]2(C)[C@H]3CC[C@@H]4[C@H]5[C@H](C(=C)C)CC[C@]5(C=O)CC[C@@]4(C)[C@]3(C)CC[C@H]2C(C)(C)C1=O	SW480	MET
